Provenance of the data: ChEMBL document CHEMBL4052814

# ASSAY METHOD TEXT: AUClast in beagle dog at 1 mg/kg, iv or 5 mg/kg, po by LC-MS/MS method
# Format: ADME, organism-based, Canis lupus familiaris
# ASSAY CONDITIONS: in vivo
For each entry below, report its AUC(0-t) value.
Write down the numeric answer in µM·h and omit the unit.

Any idea what AUC(0-t) was measured for CC(=O)N1CCc2c(c(N3CCCc4cc(-c5cnn(C)c5)c(C(F)F)cc43)nn2C2CCOCC2)C1 ?
31

Similarly, CNC(=O)N1CCc2c(c(N3CCCc4cc(-c5cnn(C)c5)c(C(F)F)cc43)nn2C2CCOCC2)C1 ?
44

* * *

For each entry below, report its solubility kinetic at 24 h, 200 µM value.
# ASSAY METHOD TEXT: Kinetic solubility of the compound in PBS at 200 uM at pH 7.4 after 24 hrs by LCMS-chemiluminescence nitrogen detection assay
# Assay type: physicochemical
# ASSAY CONDITIONS: read-out: Kinetic_solubility
Write down the numeric answer in µM and omit the unit.

Any idea what solubility kinetic at 24 h, 200 µM was measured for CNC(=O)N1CCc2c(c(N3CCCc4cc(-c5cnn(C)c5)c(C(F)F)cc43)nn2C2CCOCC2)C1 ?
95

Similarly, CC(=O)N1CCc2c(c(N3CCCc4cc(-c5cnn(C)c5)c(C(F)F)cc43)nn2C2CCOCC2)C1 ?
76

* * *

# ASSAYED SYSTEM: Histone acetyltransferase KAT2B (Homo sapiens, UniProt Q92831)
# Sequence (Q92831 whole entry): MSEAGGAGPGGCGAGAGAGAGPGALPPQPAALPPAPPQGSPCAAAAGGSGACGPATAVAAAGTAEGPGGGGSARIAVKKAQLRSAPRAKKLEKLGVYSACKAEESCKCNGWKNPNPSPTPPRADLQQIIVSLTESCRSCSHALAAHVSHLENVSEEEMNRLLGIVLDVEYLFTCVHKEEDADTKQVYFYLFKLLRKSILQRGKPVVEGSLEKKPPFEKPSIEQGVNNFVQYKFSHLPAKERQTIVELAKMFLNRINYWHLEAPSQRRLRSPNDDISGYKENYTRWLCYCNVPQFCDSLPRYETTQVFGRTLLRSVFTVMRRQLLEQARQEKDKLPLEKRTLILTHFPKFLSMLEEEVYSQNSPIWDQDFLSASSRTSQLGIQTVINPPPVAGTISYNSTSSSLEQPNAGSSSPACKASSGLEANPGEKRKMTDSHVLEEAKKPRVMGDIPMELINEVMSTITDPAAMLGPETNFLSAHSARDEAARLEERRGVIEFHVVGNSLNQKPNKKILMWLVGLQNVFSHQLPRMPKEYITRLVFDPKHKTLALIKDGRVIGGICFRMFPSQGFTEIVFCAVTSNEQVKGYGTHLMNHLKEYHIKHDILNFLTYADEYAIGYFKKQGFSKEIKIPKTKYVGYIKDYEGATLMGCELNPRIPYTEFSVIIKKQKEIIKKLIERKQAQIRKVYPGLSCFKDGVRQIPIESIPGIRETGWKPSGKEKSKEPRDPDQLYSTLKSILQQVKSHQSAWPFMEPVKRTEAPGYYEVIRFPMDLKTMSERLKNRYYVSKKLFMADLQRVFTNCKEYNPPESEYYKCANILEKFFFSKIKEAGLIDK
# ASSAY METHOD TEXT: Displacement of biotinylated histone H3K14 peptide ligand from human recombinant His-tagged PCAF measured after 10 mins by TR-FRET assay
MEASURED ENDPOINT: IC50

Observed IC50 on Histone acetyltransferase KAT2B (Homo sapiens, UniProt Q92831) for CNC(=O)N1CCc2c(c(N3CCCc4cc(-c5cnn(C)c5)c(C(F)F)cc43)nn2C2CCOCC2)C1 , please.
> 20 µM

Similarly, CC(=O)N1CCc2c(c(N3CCCc4cc(-c5cnn(C)c5)c(C(F)F)cc43)nn2C2CCOCC2)C1 ?
> 20 µM

* * *

For each entry below, report its pIC50 value.
# ASSAYED SYSTEM: Bromodomain-containing protein 4 (Homo sapiens)
# ASSAY METHOD TEXT: Displacement of biotinylated histone H3K14 peptide ligand from human recombinant His-tagged BRD4 bromodomain-1 measured after 10 mins by TR-FRET assay
Kindly note that pIC50 refers to -log10 of the concentration in mol/L and answer with the value alone.

Any idea what pIC50 was measured for CC(=O)N1CCc2c(c(N3CCCc4cc(-c5cnn(C)c5)ccc43)nn2[C@H]2CCOC2)C1 ?
4.70

Similarly, CC(=O)N1CCc2c(c(N3CCCc4cc(-c5cnn(C)c5)c(C(F)F)cc43)nn2C2CCNCC2)C1 ?
5.51

Similarly, CC(=O)N1CCc2c(c(N3CCCc4cc(-c5cnn(C)c5)c(C(F)F)cc43)nn2C2CCN(S(C)(=O)=O)CC2)C1 ?
5.40

Similarly, CN(C)C(=O)N1CCc2c(c(N3CCCc4cc(-c5cnn(C)c5)c(C(F)F)cc43)nn2C2CCOCC2)C1 ?
4.82

Similarly, CC(=O)N1CCc2c(c(N3CCCc4cc(-c5cnn(C)c5)c(C(F)F)cc43)nn2C2CCOCC2)C1 ?
5.38

Similarly, CC(=O)N1CCc2c(c(N3CCCc4cc(-c5cnn(C)c5)c(C(F)F)cc43)nn2C2CCCCC2)C1 ?
5.02
